target-desc: Glutamate racemase (GR) (Bacillus subtilis)
Sequence (P94556 whole entry): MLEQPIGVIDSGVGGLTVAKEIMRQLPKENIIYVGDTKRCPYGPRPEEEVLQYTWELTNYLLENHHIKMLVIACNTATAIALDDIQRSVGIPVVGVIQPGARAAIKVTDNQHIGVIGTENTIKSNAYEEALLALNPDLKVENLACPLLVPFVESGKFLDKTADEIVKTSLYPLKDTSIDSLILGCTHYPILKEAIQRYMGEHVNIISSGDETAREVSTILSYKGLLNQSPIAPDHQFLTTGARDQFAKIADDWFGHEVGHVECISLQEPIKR
pKi: −log10 of the molar value.

{"columns": ["compound", "pKi"],
 "data": [
  ["NC(=O)CC[C@H](N)C(=O)O [glutamine]", 1.30]
]}
